Target: T1, monomeric recombinant cynomologus monkey Notch3 extracellular domain (containing EGF like domains 1-12) … (cynomologus monkey)
T1 construct: domain: EGF like domains 1-12; also called monomeric rcNotch3
Assay: SPR BIAcore T100, antibody captured by anti-human IgG Fc, monomeric rcNotch3 analyte, 25 C
experimentalEndpoint: koff (s⁻¹)
Use s⁻¹ as the unit, but write only the number.

Below, each entry is followed by its recorded koff result.
Hu4F11-32 (antibody, human IgG1, kappa, V domains shown, Humanized, human IgG1 kappa; Sh4F11 Hv3-23 heavy + Hu4F11 Kv2D-29 kappa) VH: EVQLLESGGGLVQPGGSLRLSCAASGFAFSSYDMSWVRQAPGKGLEWVSYISRGGGSTYYPDTVKGRFTISRDNSKNTLYLQMNSLRAEDTAVYYCGRHATTAYWYFDVWGQGTMVTVSS VL: DVVMTQTPLSLSVTPGQPASISCRSSQSLVHTNGNTYLHWYLQKPGQSPQLLIYKVSNRFSGVPDRFSGSGSGTDFTLKISRVEAEDVGVYFCSQSTHVPWTFGQGTKVEIKR = 0.0075
Hu4F11-69 (antibody, human IgG1, kappa, V domains shown, Humanized, human IgG1 kappa; Hv3-23 A28T S31N T62S heavy + Kv2D-29 N28H kappa) VH: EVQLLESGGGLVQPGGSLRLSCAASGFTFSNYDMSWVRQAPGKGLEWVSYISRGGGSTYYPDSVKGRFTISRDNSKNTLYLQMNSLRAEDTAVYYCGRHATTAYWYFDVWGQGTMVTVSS VL: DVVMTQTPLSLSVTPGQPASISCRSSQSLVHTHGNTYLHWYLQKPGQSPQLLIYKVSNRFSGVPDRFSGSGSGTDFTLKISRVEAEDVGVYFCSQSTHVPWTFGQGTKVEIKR = 0.00094

Below: the item to evaluate.
Problem: May I ask what koff has been recorded for Hu4F11-72 (antibody, human IgG1, kappa, V domains shown, Humanized, human IgG1 kappa; Hv3-23 S31H T62S heavy + Kv2D-29 N28H kappa) VH: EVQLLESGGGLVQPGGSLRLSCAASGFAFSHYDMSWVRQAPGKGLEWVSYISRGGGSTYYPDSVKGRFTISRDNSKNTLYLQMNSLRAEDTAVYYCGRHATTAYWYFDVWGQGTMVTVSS VL: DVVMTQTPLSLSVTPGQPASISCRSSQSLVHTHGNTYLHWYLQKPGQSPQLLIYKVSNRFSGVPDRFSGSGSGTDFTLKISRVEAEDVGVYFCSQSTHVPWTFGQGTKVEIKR ?
Result: 0.0045

Source listed as patent US20180230213A1.
